The reported measurements were obtained from ChEMBL document CHEMBL1201862.

- System: M19-MEL
- test protocol: NCI tumour cell line growth inhibition, 48 h
Activity calls are given as the source filed them. Rule as the data show it: active = GI50 up to about 1.1 µM and inactive = higher.
This section presents molecules with their documented GI50 values.

Record excerpt, results attached:
{"molecule": "Cc1cnc2c(C)ccc([N+](=O)[O-])c2c1NCCCN(C)C", "test target": "M19-MEL", "reported metric": "GI50", "reported value": "> 100 µM (inactive)"}
{"molecule": "O=C(OC1CCC(=C2SCCCS2)[C@H]1C1SCCCS1)c1ccccc1 (some centres undefined)", "test target": "M19-MEL", "reported metric": "GI50", "reported value": "> 100 µM (inactive)"}

Could you now consider this next molecule?
Query C=C1CCC2C(C)(CO)C(O)CCC2(C)C1C/C=C1/CCOC1=O (centres undefined) yields GI50 of > 100 µM (inactive)

====

- System: NCI-H522
- test protocol: NCI tumour cell line growth inhibition, 48 h
The source made the active and inactive calls. Rule as the data show it: active = GI50 up to about 1.1 µM and inactive = higher.
reported metric: GI50

Record excerpt, results attached:
{"compound": "COCN1C(=O)[C@@H]2CCCN2C(=O)c2cc(Cl)ccc21", "GI50": "> 100 µM (inactive)"}
{"compound": "O=CN(CCN1CCCC1)C1CCc2cc(Cl)c(Cl)cc2C1 (centres undefined)", "GI50": "10.1 µM (inactive)"}

Query Oc1c(Cl)c(Cl)c(O)c(-c2cnc(-c3ncc(-c4c(O)c(Cl)c(Cl)c(O)c4Cl)s3)s2)c1Cl yields GI50 of 2.1 µM (inactive)

Query COc1ccc(NC(=O)CC2SC(Nc3ccc(Cl)cc3C)=NC2=O)c([N+](=O)[O-])c1 (centres undefined) yields GI50 of > 100 µM (inactive)

====

- System: K562
- test protocol: NCI tumour cell line growth inhibition, 48 h
Activity calls are given as the source filed them. Cut-off read from the data, not from the text of the source: active = GI50 up to about 1.1 µM and inactive = higher.
Lab note: assign the record to one of active, inactive

{"compound": "CCOC(=O)C12CCC(c3c(C)cccc3C)(O1)C(C(=O)OC)=C2C(=O)OC (configuration not stated)", "test target": "K562", "discrete label": "inactive"}
{"compound": "CN(O)C(=O)c1cccc(Cl)c1", "test target": "K562", "discrete label": "inactive"}
{"compound": "O=C(Nc1ccc(Cl)cc1C(F)(F)F)C(=O)C1CCCS1(=O)=O (configuration not stated)", "test target": "K562", "discrete label": "inactive"}

What outcome does the record of this test show for COc1ccc(CC(N)c2ccc(OC)cc2)cc1 (configuration not stated) ? inactive

What outcome does the record of this test show for N#CC1N(C(=O)c2ccc(F)cc2)c2ccccc2N1C(=O)c1ccc(F)cc1 ? inactive

What outcome does the record of this test show for CCC1C[N+]23CCc4c([nH]c5ccccc45)C2CC1CC3 (configuration not stated) ? inactive

====

This section presents molecules with their documented GI50 values.
- System: OVCAR-8
- test protocol: NCI tumour cell line growth inhibition, 48 h
Activity calls are given as the source filed them. Cut-off read from the data, not from the text of the source: active = GI50 up to about 1.1 µM and inactive = higher.

Record excerpt, results attached:
{"molecule": "O=P(CN1CCOCC1)(c1ccccc1)c1ccccc1", "GI50": "> 100 µM (inactive)"}
{"molecule": "C=CC(OCC)(OCC)OCC", "GI50": "> 100 µM (inactive)"}
{"molecule": "COc1ccc(/C=C/c2cc(O)cc(OC)c2)cc1", "GI50": "> 100 µM (inactive)"}
{"molecule": "N#Cc1sc2c(c1OC(=O)c1ccco1)c(=O)n(-c1ccccc1)c(=S)n2-c1ccccc1", "GI50": "29.9 µM (inactive)"}
{"molecule": "CCOC(=O)C1C(C(C)C)C2(C#N)C(=N)OC1(C)C2(C#N)C#N (centres undefined)", "GI50": "> 100 µM (inactive)"}

Could you now consider this next molecule?
Query NCCNC(=O)CN(CC(=O)O)C1CCCCC1N(CC(=O)O)CC(=O)O (centres undefined) yields GI50 of > 100 µM (inactive)

====

- Test system: KM-20L2
- test protocol: NCI tumour cell line growth inhibition, 48 h
Active and inactive are the calls of the source. Cut-off read from the data, not from the text of the source: active = GI50 up to about 1.1 µM and inactive = higher.
reported metric: GI50

Record excerpt, results attached:
{"compound": "O=c1c2c(c1=O)-c1ccccc1CN2", "GI50": "> 100 µM (inactive)"}
{"compound": "CCCCCCCCOCC(COC(=O)CCCCCCC)OC(=O)CCCCCCC (centres undefined)", "GI50": "> 100 µM (inactive)"}
{"compound": "CSc1sc(=S)sc1SC", "GI50": "> 100 µM (inactive)"}

Query N#C/C(=C\c1ccc2ccccc2c1)C(=O)c1ccccc1 yields GI50 of > 100 µM (inactive)

Query CCOC(=O)CNC(=O)N(CC)C12CC3CC(CC(C3)C1)C2 yields GI50 of 117 µM (inactive)

====

- Test system: RXF 393
- test protocol: NCI tumour cell line growth inhibition, 48 h
Activity calls are given as the source filed them. Rule as the data show it: active = GI50 up to about 1.1 µM and inactive = higher.
This section presents compounds with their documented GI50 values.

Record excerpt, results attached:
{"compound": "COc1ccc(N2C(=O)/C(=C/c3ccc(N(CCC#N)CCC#N)cc3)N=C2c2ccccc2)cc1", "reported metric": "GI50", "reported value": "> 100 µM (inactive)"}
{"compound": "CSC(=S)N/N=C/c1ccccc1", "reported metric": "GI50", "reported value": "28.8 µM (inactive)"}
{"compound": "O=C(Nc1ccc(Cl)cc1C(F)(F)F)C(=O)C1CCCS1(=O)=O (centres undefined)", "reported metric": "GI50", "reported value": "> 100 µM (inactive)"}
{"compound": "C/C(=N\\c1cccc(Cl)c1)c1ccncc1", "reported metric": "GI50", "reported value": "> 100 µM (inactive)"}
{"compound": "COc1cccc(C(=O)Oc2ccc(OS(=O)(=O)c3ccc(C)cc3)cc2)c1C#N", "reported metric": "GI50", "reported value": "37.6 µM (inactive)"}

Query O=C1/C(=C/c2ccccc2)CN(C(=O)C(F)(F)F)C/C1=C\c1ccccc1 yields GI50 of 1.84 µM (inactive)

Query Cc1cn2c(=O)c3ncn(C4OC(CO)C(O)C4O)c3n(C)c2n1 (centres undefined) yields GI50 of > 100 µM (inactive)

Query O=C(O)c1cc(CCc2cc(O)ccc2O)ccc1O yields GI50 of > 100 µM (inactive)

Query COc1cc(NS(C)(=O)=O)ccc1NCc1c[nH]c2ccc3ncccc3c12 yields GI50 of 5.55 µM (inactive)

Query CC1(C)OC2CN(C(=O)OCc3ccccc3)C(CO)C2O1 (centres undefined) yields GI50 of > 100 µM (inactive)

Query N=C(N)C1CN(CCCCCCCCCCN2CC(C(=N)N)C(O)=NC2=O)C(=O)N=C1O (centres undefined) yields GI50 of > 10 µM (inactive)

Query COc1ccc(NC(=O)CC2SC(Nc3ccc(Cl)cc3C)=NC2=O)c([N+](=O)[O-])c1 (centres undefined) yields GI50 of > 100 µM (inactive)

====

- Tested on: M14
- test protocol: NCI tumour cell line growth inhibition, 48 h
Active and inactive are the calls of the source. Rule as the data show it: active = GI50 up to about 1.1 µM and inactive = higher. Starred links: 1 amine or outer side, 2 acyl side, 3 side chain; linkers in the order of their positions; H or OH if unused. Non-standard residues stand in square brackets, D forms with d. Residues, ends and D or L forms follow the SMILES beside them. *: point of attachment. X34 = CC(=O)N(C)SCC(N[*:1])C(=O)[*:2]; Cbz = O=C(OCc1ccccc1)*; Bn = c1ccc(C*)cc1; For = O=C*
reported metric: GI50

{"compound": "COc1cc(NC(C)=O)ccc1C(=O)NN1C(=O)/C(=C/c2ccco2)N=C1c1ccccc1", "GI50": "38.2 µM (inactive)"}
{"compound": "CCN(CC)C(=O)CNC(=O)OC(C)(C)C", "GI50": "> 100 µM (inactive)"}
{"compound": "CC(C)C1CNC(=O)C2(/C=N/C(C(C)C)CNC(=O)C3(/C=N/1)CCCO3)CCCO2 (configuration not stated)", "GI50": "> 10 µM (inactive)"}
{"compound": "COc1cc(-c2c[nH]c3ccccc23)nc(-c2c[nH]c3ccccc23)n1", "GI50": "4.07 µM (inactive)"}
{"compound": "CC(=O)N(C)SCC(NC(=O)C(Cc1ccccc1)NC(=O)OCc1ccccc1)C(=O)NC(Cc1ccccc1)C(=O)NC(Cc1cn(C=O)c2ccccc12)C(=O)NC(CCCCNC(=O)OCc1ccccc1)C(=O)NC(C(=O)NC(CSN(C)C(C)=O)C(=O)NC(C(N)=O)C(C)OCc1ccccc1)C(C)OCc1ccccc1 (configuration not stated) (Cbz-F[X34]FW(For)K(Cbz)T(Bn)[X34]T(Bn)-NH2; configuration not given here)", "GI50": "46.9 µM (inactive)"}

Query C=CCC(C(=O)Nc1cccc2nc[nH]c12)C(=O)OCC (configuration not stated) yields GI50 of > 100 µM (inactive)

Query CN(C)CCNC(=O)c1cccc(NC(=O)c2ccccc2)c1[N+](=O)[O-] yields GI50 of > 100 µM (inactive)

====

This section presents compounds with their documented GI50 values.
- System: HT-29
- test protocol: NCI tumour cell line growth inhibition, 48 h
Calls of active or inactive are those of the source. Cut-off read from the data, not from the text of the source: active = GI50 up to about 1.1 µM and inactive = higher.

Record excerpt, results attached:
{"compound": "c1ccc(CNn2nnc3ccccc32)cc1", "reported metric": "GI50", "reported value": "> 100 µM (inactive)"}
{"compound": "COc1cc(NC(C)=O)ccc1C(=O)NN1C(=O)/C(=C/c2ccco2)N=C1c1ccccc1", "reported metric": "GI50", "reported value": "36.9 µM (inactive)"}
{"compound": "Cc1csc2c1-n1cccc1C2=O", "reported metric": "GI50", "reported value": "> 100 µM (inactive)"}
{"compound": "CCOP(=O)(OCC)C(C)(CC)NC1=NC(C(F)(F)F)(C(F)(F)F)NC(=O)N1 (stereo not given)", "reported metric": "GI50", "reported value": "> 100 µM (inactive)"}
{"compound": "CC1c2[nH]c3ccccc3c2CCN1O (stereo not given)", "reported metric": "GI50", "reported value": "> 100 µM (inactive)"}
{"compound": "COc1cccc(C(=O)Oc2ccc(OS(=O)(=O)c3ccc(C)cc3)cc2)c1C#N", "reported metric": "GI50", "reported value": "78.5 µM (inactive)"}
{"compound": "NC1=NS(=O)(=O)Nc2nc(-c3ccc(Cl)cc3)[nH]c21", "reported metric": "GI50", "reported value": "> 100 µM (inactive)"}
{"compound": "C=C1CC[C@@H]2C(C)(C)CCC[C@@]2(C)[C@@H]1Cc1cc(O)ccc1O", "reported metric": "GI50", "reported value": "16.5 µM (inactive)"}
{"compound": "O=[N+]([O-])c1ccccc1S(=O)(=O)c1cc(Cl)cc2c1NCCC2", "reported metric": "GI50", "reported value": "70.3 µM (inactive)"}
{"compound": "CC1=Nc2ccccc2NC(c2ccoc2)C1 (stereo not given)", "reported metric": "GI50", "reported value": "> 100 µM (inactive)"}

Summary: NC(=O)C(c1ccccc1)N1OC2C(=O)N(c3ccccc3)C(=O)C2C1c1c2ccccc2c(Cl)c2ccccc12 (stereo not given) , HT-29, GI50 = > 100 µM (inactive)

Summary: CN1N(c2ccccc2)C(=O)C2=NC=C(C(=O)c3ccccc3)C(=N)C21C (stereo not given) , HT-29, GI50 = > 100 µM (inactive)

Summary: COC(=O)c1c(C(=O)OC)c2cc(C(=O)c3ccccc3)ccn2c1Cl , HT-29, GI50 = 47.1 µM (inactive)

Summary: O=C1CS[C@@](CC(c2ccc(Cl)cc2)c2ccc(Cl)cc2)(c2ccc(Cl)cc2)N1 , HT-29, GI50 = 9.55 µM (inactive)

Summary: O=[N+]([O-])c1ccc(NN/N=N/c2ccc(-c3nc4ccccc4s3)cc2)c([N+](=O)[O-])c1 , HT-29, GI50 = 18.8 µM (inactive)

Summary: CCCCCCCCCCCCCC(=O)N(CCCCCCCCC)CC(O)C(O)C(OC1OC(CO)C(O)C(O)C1O)C(O)CO (stereo not given) , HT-29, GI50 = 18.5 µM (inactive)

Summary: O=C1Nc2ccc(S(=O)(=O)N(CCO)CCO)cc2/C1=C1/Nc2ccccc2C1=O , HT-29, GI50 = > 100 µM (inactive)

Summary: C/C(=N\N=C(\N)SB(F)F)c1ccc2ccccc2c1 , HT-29, GI50 = > 100 µM (inactive)

Summary: CC1(C)CC2(S(=O)(=O)c3ccccc3)ON1CC2S(=O)(=O)c1ccccc1 (stereo not given) , HT-29, GI50 = > 100 µM (inactive)

Summary: O=C(Nc1ccc([N+](=O)[O-])cc1Cl)c1cccc([N+](=O)[O-])c1O , HT-29, GI50 = 3.04 µM (inactive)
